The reported measurements were obtained from PubChem BioAssay (NCI).

assay: NCI Yeast Anticancer Drug Screen. Data for the mlh1 rad18 strain (AID 175); settings: S. cerevisiae mlh1 rad18 strain growth inhibition; at 50.0 µM; stronger effect = higher value
Compounds without any hit were thinned out: in the full panel of roughly 79,000, 15% have a hit.
MEASURED PROPERTY: growth inhibition (%)
// units = %; emit number, no label

stdin: growth inhibition lookup needed for CCC/C=C1/OC(=O)C2=C[C@H]3CC[C@]21[C@]1(OC(=O)C2=C1CCC=C2)[C@H]3CCC , thanks.
stdout: 90.5

stdin: May I ask what growth inhibition has been recorded for Oc1ccc2c(c1)Cc1cc(Br)ccc1-2 ?
stdout: 98.2

stdin: So what's the measured growth inhibition for this one? c1ccc(COc2cccc3[nH]ccc23)cc1
stdout: 95.5

stdin: What value of growth inhibition has been reported for the following compound? CCCCCCCCCCCCCCSC(=NCC)NCC
stdout: 99

stdin: Look at this compound and give its reported growth inhibition. NC(=O)C1C(=O)c2cccc3c2C1(Br)C(Br)CCC3 (centres undefined)
stdout: 99.3

stdin: Entry under review: Cc1c(N)nc(C(CC(N)=O)NCC(N)C(N)=O)nc1C(=O)NC(C(=O)NC(C)C(O)C(C)C(=O)NC(C(=O)NCCc1nc(-c2nc(C(=O)NCCCNC(C)c3ccccc3)cs2)cs1)C(C)O)C(OC1OC(CO)C(O)C(O)C1OC1OC(CO)C(O)C(OC(N)=O)C1O)c1cnc[nH]1 (centres undefined) . Reported growth inhibition?
stdout: 92.2

stdin: Could you tell me which growth inhibition is on file for Cn1c(CN(Cc2nc3ccccc3n2C)Cc2nc3ccccc3n2C)nc2ccccc21 ?
stdout: 56

stdin: Fill in: growth inhibition of Cc1ccc2nn(-c3ccc(O)cc3)nc2c1 is ___
stdout: 74.2

stdin: What measured growth inhibition goes with Cc1c(Cl)cc2[nH]c(C(F)(F)F)nc2c1Cl ?
stdout: 70.5
